assay: refractive index (Na D-line) (dimensionless); details: 293.15 K; 101.33 kPa; Liquid; Standard Abbe refractometry
VALUE TYPE: refractive index

COMPOUND | refractive index
CCC(C)=O | 1.379
CC(C)CO | 1.3957
CCO | 1.3613
CN(C)C=O [dimethylformamide] | 1.4303
CC(C)O | 1.3774
CCCCO | 1.3986
CCCO | 1.3852
C[S+](C)[O-] [dimethyl sulfoxide] | 1.4791
CCCC(C)=O | 1.3892
O | 1.3331

Hello, the source for this data is the NIST ThermoML archive (doi:10.1021/acs.jced.9b00179), in case you need it.
